# test_name: Parallel artificial membrane permeability assay (PAMPA), egg lecithin in dodecane
# Type: in vitro ADME
# condition_context: egg lecithin PAMPA, 50 μM, PBS pH 7.4, 16 h, 37 °C; read-out: PAMPA Pe
reported_property: Papp at 16 h, 50 μM

1) C#CCOCCOCCOCCOCCOCCOCCOCCOCCOCCOCCOCCOCCOCCOCCOCCOCCOC [mPEG17, propargyl-PEG17-methane]: > 0.004 ×10⁻⁶ cm/s
